The entries below are paired with their reported Bliss interaction score.
System: S. aureus DSM 20231;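 further: first quartile when negative (synergy) and third quartile when positive (antagonism)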
Experiment: Bliss interaction score (quartile over a dose matrix) (fitness difference); higher = more antagonism (negative = synergy)
readout-type: Bliss interaction score

INSERT INTO results (compound, tested_target, val) VALUES
  ('CCCCCCCCCC(=O)N[C@@H](Cc1c[nH]c2ccccc12)C(=O)N[C@H](CC(N)=O)C(=O)N[C@@H](CC(=O)O)C(=O)N[C@@H]1C(=O)NCC(=O)N[C@@H](CCCN)C(=O)N[C@@H](CC(=O)O)C(=O)N[C@H](C)C(=O)N[C@@H](CC(=O)O)C(=O)NCC(=O)N[C@H](CO)C(=O)N[C@@H]([C@H](C)CC(=O)O)C(=O)N[C@@H](CC(=O)c2ccccc2N)C(=O)O[C@@H]1C [Daptomycin] + CC1=C\[C@@H](O)CC(=O)Cc2nc(co2)C(=O)N2CCC=C2C(=O)O[C@H](C(C)C)[C@H](C)/C=C/C(=O)NC\C=C\1 [Virginiamycin M1]', 'S. aureus DSM 20231', 0.0655),
  ('CCCCCCCCCC(=O)N[C@@H](Cc1c[nH]c2ccccc12)C(=O)N[C@H](CC(N)=O)C(=O)N[C@@H](CC(=O)O)C(=O)N[C@@H]1C(=O)NCC(=O)N[C@@H](CCCN)C(=O)N[C@@H](CC(=O)O)C(=O)N[C@H](C)C(=O)N[C@@H](CC(=O)O)C(=O)NCC(=O)N[C@H](CO)C(=O)N[C@@H]([C@H](C)CC(=O)O)C(=O)N[C@@H](CC(=O)c2ccccc2N)C(=O)O[C@@H]1C [Daptomycin] + CN1C2=CC=CC=C2N=C3C1=CC=CC3=O [Pyocyanin]', 'S. aureus DSM 20231', -0.0886);
